Provide the recorded IC50 for the entries that follow.
target or system: T1, SARS-CoV-2 RBD-SD1 with murine IgG2a Fc part, produced in High Five cells (SARS-CoV-2, UniProt P0DTC2)
T1 construct: source: High Five insect cells, transient transfection, purified (Protein A)
measurement protocol: flow cytometry on cells
particulars: both partners purified
One number for each entry, in nM.

Solved entries (count: 2):
binder: STE73-6C1 scFv-Fc (scFv, V domains shown, also called scFv-hFc; source: Expi293F, transient transfection, purified (Protein A)) VH: QVQLVQSGGGVVQPGRSLRLSCAASGFTFSSYAMHWVRQAPGKGLEWVAVISYDGSNKYYADSVKGRFTISRDNSKNTLYLQMNSLRAEDTAVYYCARSYVGGMDVWGQGTTVTVSS VL: QLVLTQSPSVSGAPGQSVTISCTGTDSNIGAGYNVHWYQQLPGAAPKLIISYTDNRPSGVPDRFSGSKSGTSASLAITGLQAEDEADYYCQSSDRTLVGSLFGTGTKVTVL
IC50 / nM: 4.1
--
binder: STE73-2E9 scFv-Fc (scFv, V domains shown, also called scFv-hFc; source: Expi293F, transient transfection, purified (Protein A)) VH: QVQLVQSGAEVKKPGASVKVSCKASGYTFTSYGISWVRQAPGQGLEWMGWISAYNGNTNYAQKLQGRVTMTTDTSTSTAYMELRSLRSDDTAVYYCARGKFDYWGQGTLVTVSS VL: QSVLTQPPSVSEAPSQRVTISCSGSSSNIGNNAVNWYQQLPGKAPKLLIYYDDVLPSGVSDRFSGSKSGTSASLAISGLQSGDEADYYCAAWDDSLSGVVFGGGTKLTVL
IC50 / nM: 3.4

Provide each entry's IC50 from the list below.
1. STE73-6C8 scFv-Fc (scFv, V domains shown, also called scFv-hFc; source: Expi293F, transient transfection, purified (Protein A)) VH: QVQLQQSGAEVKKPGSSVKVSCKASGGTFSSYAISWVRQAPGQGLEWMGRIIPILGIANYAQKFQGRVTITADKSTSTAYMELSSLRSEDTAVYYCARSIAALNWFDPWGQGTLVTVSS VL: NFMLTQPHSVSESPGKTVTIPCTGSRGSIANNYVQWYRQRPGRAPTTVIFEDNQRPSGVPDRFSGSIDRSSNSASLTISGLETEDEADYYCQSYDGSNVIFGGGTKLTVL
2. STE72-4C10 scFv-Fc (scFv, V domains shown, also called scFv-hFc; source: Expi293F, transient transfection, purified (Protein A)) VH: EVQLQESGGGVVQPGRSLRLSCAASGFTFSSYAMHWVRQAPGKGLEWVAVISYDGSNKYYADSVKGRFTISRDNSKNTLYLQMNSLRAEDTAVYYCAREYSSSWYGLGAFDIWGQGTMVTVSS VL: DIRLTQSPSSLSASVGDRVTITCRASQNIHYYLNWYQQKPGKAPSLLVYGASSLQSGVPSRFSGSGSGTEYTLTISSLQPEDFATYFCQQSFKSPATFGQGTKVDIK
3. STE73-2C2 scFv-Fc (scFv, V domains shown, also called scFv-hFc; source: Expi293F, transient transfection, purified (Protein A)) VH: QVQLVESGGGLVQPGGSLRLSCAASGITVSSNYMSWVRQAPGKGLEWVSVIYSGGSTFYADSVKGRFTISRDNSKNTLYLQMNSLRAEDTGVYYCARGHDNLDYWGQGTLVTVSS VL: LPVLTQPHSVSESPGKTVIISCTGSSDSIASNYVQWYQQRPGSAPTTVIYEDNKRPSGVPDRFSGSTDSSSNSASLTISGLKTEDEAEYYCQSYDSNNHWVFGGGTKLTVL
4. STE72-4E12 scFv-Fc (scFv, V domains shown, also called scFv-hFc; source: Expi293F, transient transfection, purified (Protein A)) VH: QVQLVQSGAEVKKPGASVKVSCKASGYTFTSYYMHWVRQAPGQGLEWMGIINPSGGSTSYAQKFQGRVTMTRDTSTSTVYMELSSLRSEDTAVYYCARDLSGGLDYWGQGTLVTVSS VL: ETTLTQSPATLSVSPGERVTLACRAGQTISSKLAWYRQKPGQAPSLLIYDASTRATGVPARFSGSGSGTEFTLTISSLQSEDFAVYYCQQYSDWPPTFGQGTKVEIK
5. STE73-2G8 scFv-Fc (scFv, V domains shown, also called scFv-hFc; source: Expi293F, transient transfection, purified (Protein A)) VH: QVQLVQSGGGLVKPGGSLRLSCAASGITVSSNYMSWVRQAPGKGLEWVSILYSGGTTFYTDSVKGRFTISRDNSKNTLHLQMNSLRAEDTAVYYCARWSGTYYDYWGQGTLVTVSS VL: SSELTQDPAVSVALGQTVRITCQGDSLRSYYASWYQQKPGQAPVLVIYGKNNRPSGIPDRFSGSSSGNTASLTITGAQAEDEADYYCNSRDSTNDPVLFGAGTKLTVL
6. STE73-2B2 scFv-Fc (scFv, V domains shown, also called scFv-hFc; source: Expi293F, transient transfection, purified (Protein A)) VH: QVQLVQSGAEVKKPGASVKVSCKASGYTFTGYYMHWVRQAPGQGLEWMGWINPNSGGTNYAQKFQGRVTITRDTSASTAYMELSSLRSEDTAVYYCARVSGWYFGAFDIWGQGTMVTVSS VL: LPVLTQPHSLSESPGKTVNISCTGSSGSIASNYVQWYQQRPGSAPTTVIYEDSHRPSGVPDRFSGSIDSSSNSASLSISGLKTEDEADYYCQSYDSSNNQWVFGGGTKLTVL
7. STE70-1E12 scFv-Fc (scFv, V domains shown, also called scFv-hFc; source: Expi293F, transient transfection, purified (Protein A)) VH: QMQLVQSGAEVKKPGASVKVSCKASGYTFTGYYMHWVRQAPGQGLEWMGRINPNSGGTNYAQKFQGRVTMTRDTSTSTAYMELSRLRSDDTAVYYCVRDGYNFNNWFDPWGQGTLVTVSS VL: NFMLTQPHSVSGSPGETITISCTGSGGSIASNYVQWYRQRPGSAPTIVIYEDTQRPSGVPDRFSGSIDSSSNSASLTISGLKTEDEADYYCQSSESTNHVMFGGGSKLTVL

(A)
[5.4, 3.5, 3, 3, 2.8, 1.7, 3.2]

(Q) Which measured IC50 value corresponds to STE72-8E1 scFv-Fc (scFv, V domains shown, also called scFv-hFc; source: Expi293F, transient transfection, purified (Protein A)) VH: QVQLQEWGPGLVQPSETLSLTCTVSGGSISSGGYYWSWIRQHPGKGLEWIGRIYPSGSTNYNPSLKSRVTMSVDTSENQFSLKLSSVTAADTAVYYCARGGPKRSGSPFDVWGQGTMVTVSS VL: EVVMTQSPSTLSASVGDRVTITCRASQTFGPWLAWYQQKPGQAPKLLIYMASELESGVPSRFSGSGSGTEFTLSISSLQPDDFATYYCQQYNTFSPWTFGQGTKVDIK ?
(A) 5.6
